Target: A3R (Hs-A3R) L264T (Homo sapiens, UniProt P0DMS8, L264T)
Sequence (P0DMS8 1-318 L264T): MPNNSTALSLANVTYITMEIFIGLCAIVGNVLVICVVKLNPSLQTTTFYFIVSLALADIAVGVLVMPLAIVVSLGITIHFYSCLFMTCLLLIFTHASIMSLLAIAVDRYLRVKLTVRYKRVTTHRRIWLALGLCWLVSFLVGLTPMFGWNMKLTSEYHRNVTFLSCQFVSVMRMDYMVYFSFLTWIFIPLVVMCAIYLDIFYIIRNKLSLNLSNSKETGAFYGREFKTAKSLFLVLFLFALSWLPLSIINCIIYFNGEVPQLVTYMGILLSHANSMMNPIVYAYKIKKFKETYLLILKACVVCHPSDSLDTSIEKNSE
Experiment: cell-based
PROPERTY MEASURED: pEC50
Numbers only, as −log10 of the molar value.

Lab note: `CNc1ncnc2c1ncn2[C@@H]1O[C@H](CO)[C@@H](O)[C@H]1O` gave pEC50 of 8.19

====

Target: A1R T270L (Homo sapiens, UniProt P30542, T270L)
Sequence (P30542 1-326 T270L): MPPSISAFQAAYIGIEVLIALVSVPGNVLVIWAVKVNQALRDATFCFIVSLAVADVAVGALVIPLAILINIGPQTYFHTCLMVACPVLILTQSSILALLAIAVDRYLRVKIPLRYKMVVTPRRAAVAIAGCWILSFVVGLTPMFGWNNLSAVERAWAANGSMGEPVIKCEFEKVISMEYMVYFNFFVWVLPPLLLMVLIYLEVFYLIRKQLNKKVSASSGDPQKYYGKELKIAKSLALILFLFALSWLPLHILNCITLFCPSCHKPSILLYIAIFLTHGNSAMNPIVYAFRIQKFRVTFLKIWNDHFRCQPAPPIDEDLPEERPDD
Test: cell-based
PROPERTY MEASURED: pEC50
One number for each entry, as −log10 of the molar value.

Lab note: CNc1ncnc2c1ncn2[C@@H]1O[C@H](CO)[C@@H](O)[C@H]1O [m^6A] gave pEC50 of 6.27

====

Target: A2BR (Homo sapiens, UniProt P29275)
Sequence (P29275 1-332): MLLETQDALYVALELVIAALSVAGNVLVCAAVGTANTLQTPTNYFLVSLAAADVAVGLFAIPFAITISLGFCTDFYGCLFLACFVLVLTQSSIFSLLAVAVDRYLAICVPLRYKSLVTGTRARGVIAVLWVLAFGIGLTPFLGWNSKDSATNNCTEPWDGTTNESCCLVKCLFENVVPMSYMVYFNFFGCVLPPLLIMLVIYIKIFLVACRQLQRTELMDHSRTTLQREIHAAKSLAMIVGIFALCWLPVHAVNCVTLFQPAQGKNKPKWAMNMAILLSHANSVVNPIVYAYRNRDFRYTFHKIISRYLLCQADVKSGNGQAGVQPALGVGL
Experiment: TGF-alpha shedding assay, HEK293A
PROPERTY MEASURED: EC50 (µM)
Numbers only, in µM.

Lab note: `CNc1ncnc2c1ncn2[C@@H]1O[C@H](CO)[C@@H](O)[C@H]1O` gave EC50 of 51

====

biological target: A1R (Homo sapiens, UniProt P30542); assay: TGF-alpha shedding assay, HEK293A
PROPERTY MEASURED: pEC50
Give bare numbers, as −log10 of the molar value.

Lab note: CNc1ncnc2c1ncn2[C@@H]1O[C@H](CO)[C@@H](O)[C@H]1O [m^6A] gave pEC50 of 6.08

====

molecular target: A2AR (Homo sapiens); experiment: TGF-alpha shedding assay, HEK293A
Sequence (P29274 whole entry): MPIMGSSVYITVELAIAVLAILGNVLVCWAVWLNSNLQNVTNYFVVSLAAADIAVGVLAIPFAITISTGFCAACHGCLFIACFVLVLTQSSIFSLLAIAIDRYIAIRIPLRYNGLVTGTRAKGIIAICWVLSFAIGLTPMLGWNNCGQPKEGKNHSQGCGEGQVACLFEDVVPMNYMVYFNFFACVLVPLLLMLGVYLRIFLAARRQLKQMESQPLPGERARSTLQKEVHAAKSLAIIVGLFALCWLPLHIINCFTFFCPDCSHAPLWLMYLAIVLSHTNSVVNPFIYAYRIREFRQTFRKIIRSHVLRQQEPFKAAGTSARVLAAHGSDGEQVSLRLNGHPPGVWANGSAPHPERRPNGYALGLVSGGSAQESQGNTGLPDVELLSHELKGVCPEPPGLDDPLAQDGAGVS
PROPERTY MEASURED: EC50 (µM)
Answers are plain numbers, in µM.

Lab note: CNc1ncnc2c1ncn2[C@@H]1O[C@H](CO)[C@@H](O)[C@H]1O [m^6A] gave EC50 of 13
